Parameter pIC50: see the listing below.
target: mTOR/GbL/Raptor (mTORC1) (Homo sapiens, UniProt P42345); assay: mTOR/GbL/Raptor (mTORC1) ELISA assay, phosphorylation of 4E-BP1; settings: 0.2 nM mTORC1, 40 uM ATP, 50 nM NHis-tagged 4E-BP1, 120 minutes; read-out: IC50 in this assay (mTORC1 ELISA)
pIC50: −log10 of the molar value.
outcome_measure: pIC50

{"compound": "Cc1cc(-c2cnc3sc(N)nc3c2)cc2c1OCCN(c1nccc(N)n1)C2 [Compound 25]", "recorded_value": "6.30 to 7.00"}
{"compound": "Cc1nc2ncc(-c3cc(C)c4c(c3)CN(c3nc(CNCC(F)F)nc(C)c3C(C)C)CCO4)cc2[nH]1 [Compound 166]", "recorded_value": "≥ 7.00"}
{"compound": "Cc1cc(-c2cnc3sc(N)nc3c2)cc2c1OCCN(c1nc(NCCN(C)C)nc(C)c1C(C)C)C2 [Compound 50]", "recorded_value": "≥ 7.00"}
{"compound": "Cc1cc(-c2cnc3sc(N)nc3c2)cc2c1OCCN(c1nc(CNC3CC3)nc(C)c1C(C)C)C2 [Compound 121]", "recorded_value": "≥ 7.00"}

----------
target: mTOR/GbL/Raptor (mTORC1) (Homo sapiens); experiment: mTOR/GbL/Raptor (mTORC1) ELISA assay, phosphorylation of 4E-BP1; conditions: 0.2 nM mTORC1, 40 uM ATP, 50 nM NHis-tagged 4E-BP1, 120 minutes; read-out: IC50 in this assay (mTORC1 ELISA)
Parameter IC50: see the listing below.
outcome_measure: IC50

{"compound": "CCN(Cc1nc(C)c(C(C)C)c(N2CCOc3c(C)cc(-c4cnc5nc[nH]c5c4)cc3C2)n1)CC(F)F [Compound 171]", "recorded_value": "100 to 500 nM"}
{"compound": "Cc1nc2ccc(-c3cc(C)c4c(c3)CN(c3nc(CN(C)C)nc(C)c3C(C)C)CCO4)cc2[nH]1 [Compound 45]", "recorded_value": "100 to 500 nM"}
{"compound": "Cc1cc(-c2cnc3sc(N)nc3c2)cc2c1OCCN(c1nc(CC#N)nc(C)c1C(C)C)C2 [Compound 105]", "recorded_value": "≤ 100 nM"}
{"compound": "Cc1cc(-c2cnc(Cl)c(NS(C)(=O)=O)c2)cc2c1OCCN(c1nc(N)ncc1C(F)(F)F)C2 [Compound 14]", "recorded_value": "≤ 100 nM"}

----------
target: mTOR/GbL/Raptor (mTORC1) (Homo sapiens, UniProt P42345); test: mTOR/GbL/Raptor (mTORC1) ELISA assay, phosphorylation of 4E-BP1; details: 0.2 nM mTORC1, 40 uM ATP, 50 nM NHis-tagged 4E-BP1, 120 minutes; read-out: IC50 in this assay (mTORC1 ELISA)
pIC50: −log10 of the molar value.

{"structure_string": "Cc1cc(-c2cnc3sc(N)nc3c2)cc2c1OCCN(c1nc(CO)nc(C)c1C(C)C)C2", "pIC50": "≥ 7.00"}
{"structure_string": "Cc1cc(-c2cnc3sc(N)nc3c2)cc2c1OCCN(c1nc(S(C)(=O)=O)nc(C)c1C(C)C)C2", "pIC50": "≥ 7.00"}
{"structure_string": "COc1cc(-c2cnc3sc(N)nc3c2)cc2c1OCCN(c1nc(CN(C)C)nc(C)c1C(C)C)C2", "pIC50": "6.30 to 7.00"}

----------
molecular target: mTOR/GbL/Raptor (mTORC1) (Homo sapiens, UniProt P42345); experiment: mTOR/GbL/Raptor (mTORC1) ELISA assay, phosphorylation of 4E-BP1; conditions: 0.2 nM mTORC1, 40 uM ATP, 50 nM NHis-tagged 4E-BP1, 120 minutes; read-out: IC50 in this assay (mTORC1 ELISA)
Parameter IC50: see the listing below.

{"structure_string": "C=Cc1c(C)nc(N)nc1N1CCOc2c(C)cc(-c3nnc(N)s3)cc2C1", "assayed_system": "mTOR/GbL/Raptor (mTORC1) (Homo sapiens, UniProt P42345)", "IC50": "≤ 100 nM"}
{"structure_string": "CCc1c(Cl)nc(N)nc1N1CCOc2c(C)cc(-c3cnc4sc(N)nc4c3)cc2C1", "assayed_system": "mTOR/GbL/Raptor (mTORC1) (Homo sapiens, UniProt P42345)", "IC50": "≤ 100 nM"}
{"structure_string": "Cc1cc(-c2cnc3sc(N)nc3c2)cc2c1OCCN(c1nc(N)nc(Cl)c1C(C)C)C2", "assayed_system": "mTOR/GbL/Raptor (mTORC1) (Homo sapiens, UniProt P42345)", "IC50": "≤ 100 nM"}
{"structure_string": "CCNCc1nc(C)c(C(C)C)c(N2CCOc3c(C)cc(-c4cnc5sc(N)nc5c4)cc3C2)n1", "assayed_system": "mTOR/GbL/Raptor (mTORC1) (Homo sapiens, UniProt P42345)", "IC50": "≤ 100 nM"}

----------
molecular target: mTOR/GbL/Raptor (mTORC1) (Homo sapiens, UniProt P42345); assay: mTOR/GbL/Raptor (mTORC1) ELISA assay, phosphorylation of 4E-BP1; conditions: 0.2 nM mTORC1, 40 uM ATP, 50 nM NHis-tagged 4E-BP1, 120 minutes; read-out: IC50 in this assay (mTORC1 ELISA)

{"structure_string": "COCCc1nc(C)c(C(C)C)c(N2CCOc3c(C)cc(-c4cnc5sc(N)nc5c4)cc3C2)n1", "IC50": "≤ 100 nM"}
{"structure_string": "CNc1nc(C)c(C(C)C)c(N2CCOc3c(C)cc(-c4cnc5sc(N)nc5c4)cc3C2)n1", "IC50": "≤ 100 nM"}
{"structure_string": "Cc1cc(-c2cnc3sc(N)nc3c2)cc2c1OCCN(c1nc(CN(C)C)ncc1CC(F)(F)F)C2", "IC50": "100 to 500 nM"}
{"structure_string": "Cc1cc(-c2cnc3sc(N)nc3c2)cc2c1OCCN(c1ncncc1C(C)C)C2", "IC50": "≤ 100 nM"}
{"structure_string": "Cc1cc(-c2cnc3sc(N)nc3c2)cc2c1OCCN(c1ncnc3c1CC[C@H](C)C3)C2", "IC50": "≤ 100 nM"}
{"structure_string": "Cc1cc(-c2cnc3sc(N)nc3c2)cc2c1OCCN(c1nc(CN(C)CCF)nc(C)c1C(C)C)C2", "IC50": "≤ 100 nM"}
{"structure_string": "Cc1cnc(N)nc1N1CCOc2c(C)cc(-c3nnc(N)s3)cc2C1", "IC50": "≤ 100 nM"}
{"structure_string": "CNCc1nc(C)c(C(C)C)c(N2CCOc3c(C)cc(-c4cnc5sc(N)nc5c4)cc3C2)n1", "IC50": "≤ 100 nM"}

----------
molecular target: mTOR/GbL/Raptor (mTORC1) (Homo sapiens, UniProt P42345); assay: mTOR/GbL/Raptor (mTORC1) ELISA assay, phosphorylation of 4E-BP1; details: 0.2 nM mTORC1, 40 uM ATP, 50 nM NHis-tagged 4E-BP1, 120 minutes; read-out: IC50 in this assay (mTORC1 ELISA)
Parameter IC50: see the listing below.
outcome_measure: IC50

{"compound": "COc1cncc(-c2cc(C)c3c(c2)CN(c2nc(N)nc(C)c2C(C)C)CCO3)c1", "outcome_measure": "IC50", "recorded_value": "0.1 to 0.5 µM"}
{"compound": "CC(=O)c1c(C)ncnc1N1CCOc2c(C)cc(-c3cnc4sc(N)nc4c3)cc2C1", "outcome_measure": "IC50", "recorded_value": "≤ 0.1 µM"}
{"compound": "Cc1cc(-c2cnc3sc(N)nc3c2)cc2c1OCCN(c1nc(C3CCCN3)nc(C)c1C(C)C)C2 (centres unmarked)", "outcome_measure": "IC50", "recorded_value": "≤ 0.1 µM"}
{"compound": "Cc1cc(-c2cnc3sc(N)nc3c2)cc2c1OCCN(c1nc(CN3CCCC3)nc(C)c1C(C)C)C2", "outcome_measure": "IC50", "recorded_value": "≤ 0.1 µM"}
{"compound": "Cc1cc(-c2ccncc2)cc2c1OCCN(c1nc(N)nc(C)c1C(C)C)C2", "outcome_measure": "IC50", "recorded_value": "0.1 to 0.5 µM"}
{"compound": "Cc1cc(-c2cnc3sc(N)nc3c2)cc2c1OCCN(c1nc(CN)nc(C)c1C(C)C)C2", "outcome_measure": "IC50", "recorded_value": "≤ 0.1 µM"}
{"compound": "Cc1cc(-c2cnc3sc(N)nc3c2)cc2c1OCCN(c1ncccc1C#N)C2", "outcome_measure": "IC50", "recorded_value": "0.1 to 0.5 µM"}
{"compound": "CSc1nc(Cl)c(C(C)(C)O)c(N2CCOc3c(C)cc(-c4cnc5sc(N)nc5c4)cc3C2)n1", "outcome_measure": "IC50", "recorded_value": "0.1 to 0.5 µM"}
{"compound": "Cc1cc(-c2cnc3sc(N)nc3c2)cc2c1OCCN(c1nc(N)nc(C)c1C)C2", "outcome_measure": "IC50", "recorded_value": "0.1 to 0.5 µM"}
{"compound": "Cc1cc(-c2cnc(N)s2)cc2c1OCCN(c1nc(N)nc(C)c1C(C)C)C2", "outcome_measure": "IC50", "recorded_value": "≤ 0.1 µM"}
{"compound": "C=Cc1c(Cl)nc(N)nc1N1CCOc2c(C)cc(-c3cnc4sc(N)nc4c3)cc2C1", "outcome_measure": "IC50", "recorded_value": "≤ 0.1 µM"}
{"compound": "Cc1cc(-c2cnc3sc(N)nc3c2)cc2c1OCCN(c1nc(N)ncc1C(F)(F)F)C2", "outcome_measure": "IC50", "recorded_value": "≤ 0.1 µM"}
{"compound": "Cc1nc(C)c(C(C)C)c(N2CCOc3c(C)cc(-c4nnc(N)s4)cc3C2)n1", "outcome_measure": "IC50", "recorded_value": "≤ 0.1 µM"}
{"compound": "Cc1cc(-c2ccn[nH]2)cc2c1OCCN(c1nc(N)nc(C)c1C(C)C)C2", "outcome_measure": "IC50", "recorded_value": "0.1 to 0.5 µM"}
{"compound": "Cc1cc(-c2cnc3sc(N)nc3c2)cc2c1OCCN(c1nc(CN(C)C)nc(Cl)c1C(C)C)C2", "outcome_measure": "IC50", "recorded_value": "≤ 0.1 µM"}
{"compound": "Cc1cc(-c2cnc3sc(N)nc3c2)cc2c1OCCN(c1nc(N)ccc1C#N)C2", "outcome_measure": "IC50", "recorded_value": "≤ 0.1 µM"}
{"compound": "Cc1cc(-c2cccnc2)cc2c1OCCN(c1nc(N)nc(C)c1C(C)C)C2", "outcome_measure": "IC50", "recorded_value": "0.1 to 0.5 µM"}
{"compound": "C=Cc1c(C)nc(N)nc1N1CCOc2c(C)cc(-c3cnc4sc(N)nc4c3)cc2C1", "outcome_measure": "IC50", "recorded_value": "≤ 0.1 µM"}
{"compound": "CCc1c(C)nc(N)nc1N1CCOc2c(C)cc(-c3cnc4sc(N)nc4c3)cc2C1", "outcome_measure": "IC50", "recorded_value": "≤ 0.1 µM"}
{"compound": "Cc1cc(-c2cnc3sc(N)nc3c2)cc2c1OCCN(c1nc(N)c(C#N)cc1C#N)C2", "outcome_measure": "IC50", "recorded_value": "≤ 0.1 µM"}
{"compound": "Cc1cc(-c2cnc3sc(N)nc3c2)cc2c1OCCN(c1nc(C(F)(F)F)nc(C)c1C(C)C)C2", "outcome_measure": "IC50", "recorded_value": "≤ 0.1 µM"}
{"compound": "Cc1cc(-c2cnc3sc(N)nc3c2)cc2c1OCCN(c1nc(CN(C)C)nc(C)c1C(C)C)C2", "outcome_measure": "IC50", "recorded_value": "≤ 0.1 µM"}
{"compound": "COCc1c(C)nc(C)nc1N1CCOc2c(C)cc(-c3cnc4sc(N)nc4c3)cc2C1", "outcome_measure": "IC50", "recorded_value": "≤ 0.1 µM"}
